- target-under-test: T1, native human ApoC3 (human, UniProt P02656 21-99)
- T1 construct: also called nhuApoC3; native huApoC3
- T1 sequence (P02656 21-99): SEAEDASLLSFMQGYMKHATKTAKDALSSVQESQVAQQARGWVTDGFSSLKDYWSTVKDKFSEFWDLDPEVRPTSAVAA
- assay: SPR, IgG1 over ApoC3 on CM5 chip, pH 7.4
readout-type: kon (M⁻¹ s⁻¹)

[
  {
    "binder": "5E5VH12_VLWT human IgG1 (antibody, V domains shown) VH: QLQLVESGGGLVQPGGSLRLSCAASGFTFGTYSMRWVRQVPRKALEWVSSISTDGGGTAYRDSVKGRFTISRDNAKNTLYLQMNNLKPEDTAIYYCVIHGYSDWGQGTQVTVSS VL: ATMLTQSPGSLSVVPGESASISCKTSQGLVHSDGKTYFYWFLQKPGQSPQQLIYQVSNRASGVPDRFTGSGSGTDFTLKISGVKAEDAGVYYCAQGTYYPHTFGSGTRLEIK",
    "readout-type": "kon",
    "measurement-unit": "M⁻¹ s⁻¹",
    "measured-result": 393000
  },
  {
    "binder": "5E5VH12_VL8 human IgG1 (antibody, V domains shown, Tested as human IgG1) VH: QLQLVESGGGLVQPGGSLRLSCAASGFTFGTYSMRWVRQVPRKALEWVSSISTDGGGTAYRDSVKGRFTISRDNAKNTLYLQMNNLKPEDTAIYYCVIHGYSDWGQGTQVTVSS VL: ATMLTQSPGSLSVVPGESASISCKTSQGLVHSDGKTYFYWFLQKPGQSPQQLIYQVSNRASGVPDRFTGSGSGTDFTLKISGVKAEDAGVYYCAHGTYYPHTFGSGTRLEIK",
    "readout-type": "kon",
    "measurement-unit": "M⁻¹ s⁻¹",
    "measured-result": 267000
  },
  {
    "binder": "5E5VH5_VLWT human IgG1 (antibody, V domains shown) VH: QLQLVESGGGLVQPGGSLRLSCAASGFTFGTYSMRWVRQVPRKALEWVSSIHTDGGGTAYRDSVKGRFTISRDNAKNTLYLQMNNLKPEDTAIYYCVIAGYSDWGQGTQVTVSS VL: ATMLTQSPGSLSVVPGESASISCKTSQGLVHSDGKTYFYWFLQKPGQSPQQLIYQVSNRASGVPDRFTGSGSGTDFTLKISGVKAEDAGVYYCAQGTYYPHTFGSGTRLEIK",
    "readout-type": "kon",
    "measurement-unit": "M⁻¹ s⁻¹",
    "measured-result": 178000
  },
  {
    "binder": "5E5WT human IgG1 (antibody, V domains shown) VH: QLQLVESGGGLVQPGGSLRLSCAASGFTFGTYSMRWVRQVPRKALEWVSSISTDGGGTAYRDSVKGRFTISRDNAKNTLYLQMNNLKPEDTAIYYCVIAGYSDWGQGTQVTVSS VL: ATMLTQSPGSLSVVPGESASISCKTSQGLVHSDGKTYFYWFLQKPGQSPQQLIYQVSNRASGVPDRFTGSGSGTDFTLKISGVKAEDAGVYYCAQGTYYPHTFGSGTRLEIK",
    "readout-type": "kon",
    "measurement-unit": "M⁻¹ s⁻¹",
    "measured-result": 350000
  },
  {
    "binder": "5E5VH5VH12_VLWT human IgG1 (antibody, V domains shown) VH: QLQLVESGGGLVQPGGSLRLSCAASGFTFGTYSMRWVRQVPRKALEWVSSIHTDGGGTAYRDSVKGRFTISRDNAKNTLYLQMNNLKPEDTAIYYCVIHGYSDWGQGTQVTVSS VL: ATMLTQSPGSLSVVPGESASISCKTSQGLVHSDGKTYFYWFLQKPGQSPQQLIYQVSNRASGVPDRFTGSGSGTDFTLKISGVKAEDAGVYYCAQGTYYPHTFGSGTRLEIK",
    "readout-type": "kon",
    "measurement-unit": "M⁻¹ s⁻¹",
    "measured-result": 61600
  },
  {
    "binder": "5E5VHWT_VL8 human IgG1 (antibody, V domains shown) VH: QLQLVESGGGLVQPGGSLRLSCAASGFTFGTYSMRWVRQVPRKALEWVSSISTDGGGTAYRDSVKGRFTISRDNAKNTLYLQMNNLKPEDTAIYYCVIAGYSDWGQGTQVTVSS VL: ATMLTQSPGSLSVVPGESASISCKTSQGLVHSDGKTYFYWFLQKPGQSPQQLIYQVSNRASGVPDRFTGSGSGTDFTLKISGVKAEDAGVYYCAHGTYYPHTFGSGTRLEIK",
    "readout-type": "kon",
    "measurement-unit": "M⁻¹ s⁻¹",
    "measured-result": 782000
  },
  {
    "binder": "5E5VH5_VL8 human IgG1 (antibody, V domains shown, Tested as human IgG1; the tested lot is not tied to them in words) VH: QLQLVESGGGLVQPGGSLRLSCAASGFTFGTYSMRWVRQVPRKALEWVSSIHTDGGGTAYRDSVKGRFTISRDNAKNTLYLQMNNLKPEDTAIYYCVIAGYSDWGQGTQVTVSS VL: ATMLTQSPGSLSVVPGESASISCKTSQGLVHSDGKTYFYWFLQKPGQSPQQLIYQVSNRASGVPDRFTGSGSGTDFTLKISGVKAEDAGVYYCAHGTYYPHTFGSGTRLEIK",
    "readout-type": "kon",
    "measurement-unit": "M⁻¹ s⁻¹",
    "measured-result": 177000
  }
]
